Reference for the values: patent US20240182536A1

Target: T1, interleukin 18 binding protein (IL-18BP) (UniProt O95998 31-194)
T1 sequence (looked up): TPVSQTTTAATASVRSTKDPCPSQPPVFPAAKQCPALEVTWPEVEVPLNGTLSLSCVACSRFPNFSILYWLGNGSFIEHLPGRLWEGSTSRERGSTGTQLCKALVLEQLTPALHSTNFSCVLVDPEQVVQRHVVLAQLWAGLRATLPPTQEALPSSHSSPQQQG
Test: cell-based or functional assay
REPORTED_PROPERTY: Ratio (-BP/+BP), DF-10000

IL-18 variant K53G, S55P, R104K, H109Y (ligand) YFGKLESKLSVIRNLNDQVLFIDQGNRPLFEDMTDSDMRDNAPRTIFIISMYGDPQPRGMAVTISVKSEKISTLSSENKIISFKEMNPPDNIKDTKSDIIFFQKSVPGYDNKMQFESSSYEGYFLASEKERDLFKLILKKEDELGDRSIMFTVQNED; 1.72
IL-18 variant K53N, S55Y (ligand) YFGKLESKLSVIRNLNDQVLFIDQGNRPLFEDMTDSDMRDNAPRTIFIISMYNDYQPRGMAVTISVKSEKISTLSSENKIISFKEMNPPDNIKDTKSDIIFFQRSVPGHDNKMQFESSSYEGYFLASEKERDLFKLILKKEDELGDRSIMFTVQNED; 1.11

Look up Ratio (-BP/+BP), DF-10000 for this binder: IL-18 variant T34S, S36Y, D37N, D40E, N41Q, K53Y, S55I (ligand) YFGKLESKLSVIRNLNDQVLFIDQGNRPLFEDMSDYNMREQAPRTIFIISMYYDIQPRGMAVTISVKSEKISTLSSENKIISFKEMNPPDNIKDTKSDIIFFQRSVPGHDNKMQFESSSYEGYFLASEKERDLFKLILKKEDELGDRSIMFTVQNED
0.98
